Consider the following molecules; for each one, report its remaining activity at 10 µM.
Target: human GnRH receptor (Homo sapiens)
Construct: expressed in transfected cells; host or cells: HEK 293 (hGnRH-R/293, from Dr. Stuart Sealfon)
Sequence (P30968 1-328): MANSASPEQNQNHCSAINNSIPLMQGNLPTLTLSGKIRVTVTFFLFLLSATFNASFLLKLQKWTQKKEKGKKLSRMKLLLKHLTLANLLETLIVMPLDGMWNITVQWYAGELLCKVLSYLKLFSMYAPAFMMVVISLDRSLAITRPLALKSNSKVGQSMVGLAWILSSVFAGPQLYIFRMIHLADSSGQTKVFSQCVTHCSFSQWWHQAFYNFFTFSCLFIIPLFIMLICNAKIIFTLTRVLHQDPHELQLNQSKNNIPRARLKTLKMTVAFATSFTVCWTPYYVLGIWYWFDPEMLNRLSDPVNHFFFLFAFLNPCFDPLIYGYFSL
Test: Radioligand binding, 125I-GnRH-A displacement, membranes of HEK 293 cells with human GnRH receptor
Conditions: 1 h, substrate remaining; 10 uM compound; closer to zero = closer to 100% inhibition; read-out: S%R 10 uM hGnRHR
Please provide the amount together with its unit, number first.

INSERT INTO results (molecule, experimental_value) VALUES
  ('Cc1cc2c(cc1Cc1ccc(C(=O)Nc3ccccc3O)o1)C(C)(C)CCC2(C)C', '45%'),
  ('CC1=CC(NC(=O)c2ccc(Cc3cc4c(cc3C)C(C)(C)CCC4(C)C)o2)=NC1c1ccccc1 (centres unmarked)', '31%'),
  ('Cc1cc2c(cc1Cc1ccc(C(=O)Nc3ccccc3CCO)o1)C(C)(C)CCC2(C)C', '0%'),
  ('Cc1cc2c(cc1Cc1ccc(C(=O)Nc3ccc(O)c([N+](=O)[O-])c3)o1)C(C)(C)CCC2(C)C', '55%'),
  ('COC(=O)c1ccc(NC(=O)c2ccc(Cc3cc4c(cc3C)C(C)(C)CCC4(C)C)o2)cc1OC', '13%'),
  ('Cc1cc2c(cc1Cc1ccc(C(=O)Nc3cccc(OC(F)(F)F)c3)o1)C(C)(C)CCC2(C)C', '55%');

List remaining activity at 10 µM for every entry below, keeping the order given.
1. Cc1cccc(NC(=O)c2ccc(Cc3cc4c(cc3C)C(C)(C)CCC4(C)C)o2)c1
2. Cc1cc2c(cc1Cc1ccc(C(=O)Nc3cccc([N+](=O)[O-])c3)o1)C(C)(C)CCC2(C)C
3. Cc1nc2cc(NC(=O)c3ccc(Cc4cc5c(cc4C)C(C)(C)CCC5(C)C)o3)ccc2s1
4. CCN(CC)CCNC(=O)c1ccc(NC(=O)c2ccc(Cc3cc4c(cc3C)C(C)(C)CCC4(C)C)o2)cc1
5. Cc1cc(NC(=O)c2ccc(Cc3cc4c(cc3C)C(C)(C)CCC4(C)C)o2)n(-c2ccccc2)n1
6. Cc1cc2c(cc1Cc1ccc(C(=O)Nc3ccc4[nH]c(O)nc4c3)o1)C(C)(C)CCC2(C)C

A.
1. 21%
2. 37%
3. 4%
4. 55%
5. 33%
6. 20%

For each of the items listed, what is its remaining activity at 10 µM?
1. Cc1cc2c(cc1Cc1ccc(C(=O)Nc3ccccc3C(=O)NCc3cccnc3)o1)C(C)(C)CCC2(C)C
2. CSc1ccc(NC(=O)c2ccc(Cc3cc4c(cc3C)C(C)(C)CCC4(C)C)o2)cc1

A.
1: 51%; 2: 37%

The origin of these recorded values is patent US7101878B1.
